System: Hs578T complex spheroid growth, percent test/control
Assay: Anticancer human tumor Hs578T cell line growth inhibition [AhR];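 further: luminescent viability signal as a proxy for spheroid growth; spheroids exposed to agents for one week after three days of growth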
Details: second compound 10 µM; first compound 0.000949 µM; stronger effect = lower value
reported_metric: viability, T/C (%)
Note: unit % is implicit; provide only the numeric part.

# annotated cases, reported viability, T/C shown
CCc1c2c(nc3ccc(O)cc13)-c1cc3c(c(=O)n1C2)COC(=O)[C@]3(O)CC + Cc1ccccc1N=Nc1ccc(NC(=O)c2ccnn2C)c(C)c1: 60.4
Nc1ncn(C2CC(O)C(CO)S2)c(=O)n1 (centres undefined) + Cc1cncc(-c2nc(NCCc3c[nH]c4ccccc34)c3ncn(C(C)C)c3n2)c1: 14.1
CC(C)CC(NC(=O)C(Cc1ccccc1)NC(=O)c1cnccn1)B(O)O (centres undefined) + Cc1cncc(-c2nc(NCCc3c[nH]c4ccccc34)c3ncn(C(C)C)c3n2)c1: 5.56

So what's the measured viability, T/C for this one? CC(C)CC(NC(=O)C(Cc1ccccc1)NC(=O)c1cnccn1)B(O)O (centres undefined) + Cc1ccccc1N=Nc1ccc(NC(=O)c2ccnn2C)c(C)c1
62.1

* * *

Test system: Hs578T complex spheroid growth, percent test/control
Test: Anticancer human tumor Hs578T cell line growth inhibition [AhR];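 further: luminescent viability signal as a proxy for spheroid growth; spheroids exposed to agents for one week after three days of growth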
Settings: second compound 1 µM; first compound 3.16 µM; stronger effect = lower value
reported_metric: viability, T/C

Some compounds with known viability, T/C results, for comparison:
O=C(c1cc(Cc2n[nH]c(=O)c3ccccc23)ccc1F)N1CCN(C(=O)C2CC2)CC1 + Cc1ccccc1N=Nc1ccc(NC(=O)c2ccnn2C)c(C)c1: 104%
Nc1ccn(C2OC(CO)C(O)C2(F)F)c(=O)n1 (stereo not drawn) + Cc1ccccc1N=Nc1ccc(NC(=O)c2ccnn2C)c(C)c1: 48.1%

Which viability, T/C value is on record for CC1COCCN1c1cc(C2(S(C)(=N)=O)CC2)nc(-c2ccnc3[nH]ccc23)n1 (stereo not drawn) + Cc1ccccc1N=Nc1ccc(NC(=O)c2ccnn2C)c(C)c1 ?
73.7%

* * *

System: Hs578T complex spheroid growth, percent test/control
Assay: Anticancer human tumor Hs578T cell line growth inhibition [AhR];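 further: luminescent viability signal as a proxy for spheroid growth; spheroids exposed to agents for one week after three days of growth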
Conditions: second compound 3.16 µM; first compound 0.0316 µM; stronger effect = lower value
Source text: Multicellular complex tumor spheroid response to aryl hydrocarbon receptor antagonists in combination with a variety of drugs and investigational agents in selected tumor cell lines […] Compounds. […] If the clinical Cmax for an agent had not been determined, the highest concentration tested was 10 microM (Table 1). […]
Entries and their viability, T/C
Give the value in % but do not write % after it.

Guide cases for viability, T/C, answers given:
NS(=O)(=O)OCC1CC(n2ccc3c(NC4CCc5ccccc54)ncnc32)CC1O (stereo not given) + CC(CO)NC(=O)c1cc(-c2ccc(Cl)cc2)nn(-c2cnn(C)c2)c1=O: 119
Nc1ccn(C2OC(CO)C(O)C2(F)F)c(=O)n1 (stereo not given) + Cc1cncc(-c2nc(NCCc3c[nH]c4ccccc34)c3ncn(C(C)C)c3n2)c1: 37.8
Nc1ccn(C2OC(CO)C(O)C2(F)F)c(=O)n1 (stereo not given) + CC(CO)NC(=O)c1cc(-c2ccc(Cl)cc2)nn(-c2cnn(C)c2)c1=O: 59.4
NS(=O)(=O)OCC1CC(n2ccc3c(NC4CCc5ccccc54)ncnc32)CC1O (stereo not given) + Cc1ccccc1N=Nc1ccc(NC(=O)c2ccnn2C)c(C)c1: 94.9
Cn1ncnc1C1c2n[nH]c(=O)c3cc(F)cc(c23)NC1c1ccc(F)cc1 (stereo not given) + Cc1ccccc1N=Nc1ccc(NC(=O)c2ccnn2C)c(C)c1: 99.9
Nc1ccccc1NC(=O)c1ccc(CNC(=O)OCc2cccnc2)cc1 + Cc1cncc(-c2nc(NCCc3c[nH]c4ccccc34)c3ncn(C(C)C)c3n2)c1: 72
CC1COCCN1c1cc(C2(S(C)(=N)=O)CC2)nc(-c2ccnc3[nH]ccc23)n1 (stereo not given) + Cc1cncc(-c2nc(NCCc3c[nH]c4ccccc34)c3ncn(C(C)C)c3n2)c1: 62.5
Nc1ccccc1NC(=O)c1ccc(CNC(=O)OCc2cccnc2)cc1 + Cc1ccccc1N=Nc1ccc(NC(=O)c2ccnn2C)c(C)c1: 89.5

I am curious: what viability, T/C value has been reported for O=C(C=Cc1cccc(S(=O)(=O)Nc2ccccc2)c1)NO + CC(CO)NC(=O)c1cc(-c2ccc(Cl)cc2)nn(-c2cnn(C)c2)c1=O ?
106

Please give the measured viability, T/C for this compound: CC1COCCN1c1cc(C2(S(C)(=N)=O)CC2)nc(-c2ccnc3[nH]ccc23)n1 (stereo not given) + Cc1ccccc1N=Nc1ccc(NC(=O)c2ccnn2C)c(C)c1
85.4
